# experimentalSystem: CYP1A2 (Homo sapiens, UniProt P05177)
# Sequence (P05177 whole entry): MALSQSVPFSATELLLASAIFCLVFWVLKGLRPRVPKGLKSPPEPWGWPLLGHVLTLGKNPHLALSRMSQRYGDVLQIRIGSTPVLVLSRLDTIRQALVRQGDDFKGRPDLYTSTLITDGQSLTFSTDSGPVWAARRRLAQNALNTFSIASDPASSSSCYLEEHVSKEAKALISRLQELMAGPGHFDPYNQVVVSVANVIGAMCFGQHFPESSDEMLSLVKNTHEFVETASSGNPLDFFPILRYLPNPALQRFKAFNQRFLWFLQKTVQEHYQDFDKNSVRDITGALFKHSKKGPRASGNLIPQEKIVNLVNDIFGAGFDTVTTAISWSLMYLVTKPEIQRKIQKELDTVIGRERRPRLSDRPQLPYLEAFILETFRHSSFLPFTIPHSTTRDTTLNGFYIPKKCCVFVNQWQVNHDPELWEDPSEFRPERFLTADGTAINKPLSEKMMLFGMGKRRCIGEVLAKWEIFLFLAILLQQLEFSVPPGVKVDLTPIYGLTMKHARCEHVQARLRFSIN
# experimentDescription: Inhibition of Cytochrome P450 1A2 at 10 uM
# Assay type: ADME
Returns T if the recorded inhibition at 10 µM is greater than or equal to 40%, and F otherwise.

[
  {
    "compound": "CSc1nc(-c2ccc(F)cc2)c(-c2ccnc(NC(C)c3ccccc3)c2)[nH]1 (stereo not given)",
    "group": "T"
  }
]

Next item in the queue.
Textbook exercise: given the entry C[S+]([O-])c1ccc(CSc2nc(-c3ccc(F)cc3)c(-c3ccncc3)[nH]2)cc1 (stereo not given) , state whether its inhibition at 10 µM is greater than or equal to 40%. F

###

Recorded measurements of log10(IC50), one per entry
# experimentalSystem: MAP kinase p38 (Homo sapiens, UniProt O15264+Q15759+Q16539+P53778)
# experimentDescription: Inhibitory activity against mitogen-activated protein kinase p38 at 10 e-4 to 10 e-8 M concentration
# Type: protein assay
Values reflect log10 of reported IC50 (nM).

# example entries with known answers
[
  {
    "compound": "CSc1nc(-c2ccc(F)cc2)c(-c2ccncc2)[nH]1",
    "measurementLabel": "log10(IC50)",
    "measurement": 2.80
  },
  {
    "compound": "CSc1nc(-c2ccc(F)cc2)c(-c2ccnc(NC(C)=O)c2)n1C",
    "measurementLabel": "log10(IC50)",
    "measurement": 2.70
  },
  {
    "compound": "CSc1nc(-c2ccc(F)cc2)c(-c2ccnc(NC(C)c3ccccc3)c2)n1C (stereo not given)",
    "measurementLabel": "log10(IC50)",
    "measurement": 2.34
  }
]

Give the measured log10(IC50) of CSc1nc(-c2ccc(F)cc2)c(-c2ccnc(F)c2)[nH]1 . 3.58

# input compound: CSc1nc(-c2ccc(F)cc2)c(-c2ccnc(N)c2)n1C ; wanted: its log10(IC50) 3.36

###

# experimentalSystem: MAP kinase p38 (Homo sapiens, UniProt O15264+Q15759+Q16539+P53778)
# experimentDescription: Inhibition of p38-related TNF-alpha release by whole blood cells at 10 e-4 to 10 e-8 M
# Type: functional
Recorded IC50, one value per entry.
Your answer should be a number followed by the unit of measure.

Solved cases (3 shown):
[
  {
    "smilesEntry": "CSc1nc(-c2ccc(F)cc2)c(-c2ccnc(NC(C)=O)c2)n1C1CC(C)(C)NC(C)(C)C1",
    "IC50": "5.4 µM"
  },
  {
    "smilesEntry": "CSc1nc(-c2ccc(F)cc2)c(-c2ccncc2)n1C1CC(C)(C)NC(C)(C)C1",
    "IC50": "19.1 µM"
  },
  {
    "smilesEntry": "CSc1nc(-c2ccc(F)cc2)c(-c2ccncc2)n1C",
    "IC50": "5.1 µM"
  }
]

Now for another entry.
If you can, please state the reported IC50 value of CCNc1cc(-c2c(-c3ccc(F)cc3)nc(SC)n2C)ccn1 . 5 µM

###

# experimentalSystem: CYP3A4 (Homo sapiens, UniProt P08684)
# Sequence (P08684 whole entry): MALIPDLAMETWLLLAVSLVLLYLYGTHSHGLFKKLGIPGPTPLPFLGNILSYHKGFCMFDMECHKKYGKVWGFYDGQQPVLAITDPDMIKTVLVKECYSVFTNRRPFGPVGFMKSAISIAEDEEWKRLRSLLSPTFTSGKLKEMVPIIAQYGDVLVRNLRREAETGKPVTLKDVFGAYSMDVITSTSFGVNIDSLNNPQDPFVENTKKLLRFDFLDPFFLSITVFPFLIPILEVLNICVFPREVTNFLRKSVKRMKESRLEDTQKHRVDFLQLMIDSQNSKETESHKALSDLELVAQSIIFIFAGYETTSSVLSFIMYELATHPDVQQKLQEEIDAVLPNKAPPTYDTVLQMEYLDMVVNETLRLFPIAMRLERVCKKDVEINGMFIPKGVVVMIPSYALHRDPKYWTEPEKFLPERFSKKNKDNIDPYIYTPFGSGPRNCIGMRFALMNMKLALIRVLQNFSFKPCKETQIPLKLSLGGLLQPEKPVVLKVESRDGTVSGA
# experimentDescription: Inhibition of Cytochrome P450 3A4 at 10 uM
# Type: ADME
measurementLabel: inhibition at 10 µM (%)
Please reply with the bare figure in % and do not write the unit itself.

Please report the recorded inhibition at 10 µM for CSc1nc(-c2ccc(F)cc2)c(-c2ccnc(NC(C)c3ccccc3)c2)n1C (stereo not given) . 85.8
